// reported Plant response rating, Blackgrass for each item listed
- Test system: blackgrass (Alopecurus myosuroides)
- Procedure summary: Test B postemergence plant response
- Assay type: in vivo
- Setup conditions: 31 g ai/ha, Postemergence; 0 to 100 scale, 0 no effect, 100 complete control
Recorded metric: Plant response rating, Blackgrass

INSERT INTO measurements (compound, experimental_value) VALUES
  ('Fc1ccc(Oc2ncc(Cl)cn2)c(-c2cc(C(F)F)on2)c1Br [Compound 114]', 10),
  ('FC(F)=Cc1cc(-c2c(F)cccc2Oc2ncc(Cl)cn2)no1 [Compound 91]', 0),
  ('FC(F)c1cc(-c2ccccc2Oc2ncc(Cl)cn2)co1 [Compound 141]', 0),
  ('Fc1cccc(Oc2ncc(Br)cn2)c1-c1cc(C(F)F)on1 [Compound 118]', 60),
  ('Cn1ncnc1-c1ccccc1Oc1ncc(Cl)cn1 [Compound 117]', 0),
  ('FC(F)(F)COCc1cc(-c2ccccc2Oc2ncc(Br)cn2)on1 [Compound 129]', 0),
  ('Cc1nnc(-c2ccccc2Oc2ncc(Cl)cn2)o1 [Compound 106]', 0),
  ('FC(F)(F)C(F)(F)c1cc(-c2ccccc2Oc2ncc(Cl)cn2)no1 [Compound 142]', 0);

---

- Tested on: Italian ryegrass (Lolium multiflorum)
- Procedure summary: Test D pre-/postemergence plant response
- Format: in vivo
- Setup conditions: Postemergence, 31 g ai/ha; scale 0 to 100 (0 no effect, 100 complete control)
- Excerpt: […]
Recorded metric: Ryegrass, Italian plant response rating

INSERT INTO assay_data (compound_smiles, target, recorded_metric, experimental_value) VALUES
  ('Cc1cc(-c2ccccc2Oc2ncc(Cl)cn2)no1', 'Italian ryegrass (Lolium multiflorum)', 'Ryegrass, Italian plant response rating', 0),
  ('FC(F)c1cc(-c2ccccc2Oc2ncc(Br)cn2)on1', 'Italian ryegrass (Lolium multiflorum)', 'Ryegrass, Italian plant response rating', 0),
  ('FC(F)(F)c1cc(-c2c(Cl)cccc2Oc2ncc(Cl)cn2)no1', 'Italian ryegrass (Lolium multiflorum)', 'Ryegrass, Italian plant response rating', 0),
  ('FC(F)(F)c1cc(-c2c(Br)cccc2Oc2ncc(Cl)cn2)no1', 'Italian ryegrass (Lolium multiflorum)', 'Ryegrass, Italian plant response rating', 0),
  ('Fc1ccc(Oc2ncc(Cl)cn2)c(-c2cc(C(F)F)on2)c1F', 'Italian ryegrass (Lolium multiflorum)', 'Ryegrass, Italian plant response rating', 5),
  ('Cn1nnc(-c2ccccc2Oc2ncc(Br)cn2)n1', 'Italian ryegrass (Lolium multiflorum)', 'Ryegrass, Italian plant response rating', 0),
  ('Fc1cccc(Oc2ncc(Cl)cn2)c1-c1cc(C2CC2)on1', 'Italian ryegrass (Lolium multiflorum)', 'Ryegrass, Italian plant response rating', 5),
  ('N#Cc1cccc(Oc2ncc(Cl)cn2)c1-c1cc(C(F)(F)F)on1', 'Italian ryegrass (Lolium multiflorum)', 'Ryegrass, Italian plant response rating', 5),
  ('Clc1cnc(Oc2ccccc2-c2ccon2)nc1', 'Italian ryegrass (Lolium multiflorum)', 'Ryegrass, Italian plant response rating', 0),
  ('Fc1ccc(Oc2ncc(Cl)cn2)c(-c2cc(C(F)(Cl)Cl)on2)c1', 'Italian ryegrass (Lolium multiflorum)', 'Ryegrass, Italian plant response rating', 5),
  ('FC(F)Oc1cccc(Oc2ncc(Cl)cn2)c1-c1cc(C(F)F)on1', 'Italian ryegrass (Lolium multiflorum)', 'Ryegrass, Italian plant response rating', 5),
  ('FC(F)(F)c1cc(-c2ccccc2Oc2ncc(Cl)cn2)ncn1', 'Italian ryegrass (Lolium multiflorum)', 'Ryegrass, Italian plant response rating', 0),
  ('Cc1cc(-c2c(F)cccc2Oc2ncc(Br)cn2)on1', 'Italian ryegrass (Lolium multiflorum)', 'Ryegrass, Italian plant response rating', 0);
